assay: Selectivity index, ratio of IC50 for african green monkey Vero cells to IC50 for chloroquine-resistant Plasmodium falciparum FcB1/Colombia; type: toxicity, cell-based; conditions: read-out: Ratio IC50
experimental-readout: selectivity ratio
Give the value as a plain number.

# input What does the record list as selectivity ratio for `Cn1c2c(O)cccc2c(=O)c2c(O)cc3c(c21)C=CC(C)(C)O3` ?
# output 10

# input What does the record list as selectivity ratio for `COc1cc2c(c(O)c1OC)c(=O)c1cccc(O)c1n2C` ?
# output 10

* * *

system: Leishmania donovani; test: Antileishmanial activity against Leishmania donovani MHOM/ET/L82/LV9 promastigotes after 3 days by MTT assay; assay type: functional, organism-based; settings: MHOM/ET/L82/LV9, 72 h
Record form. Attribute: log10 EC50. Fill in for each entry.
Transform log10 | Measure EC50 | Unit µg/mL

# input What does the record list as log10 EC50 for `Cn1c2c(O)cccc2c(=O)c2c(O)cc3c(c21)C=CC(C)(C)O3` ?
# output 1.05

# input What does the record list as log10 EC50 for CC(C)=CCc1cc2ccc(=O)oc2cc1O [DEMETHYLSUBEROSIN] ?
# output 2.08

# input What does the record list as log10 EC50 for `COc1cc2c(c(O)c1OC)c(=O)c1cccc(O)c1n2C` ?
# output 1.31

# input What does the record list as log10 EC50 for `CC(=O)O[C@@H]1C[C@H]2C(C)(C)OC(=O)C=C[C@]2(C)[C@H]2CC[C@@]3(C)[C@H](c4ccoc4)OC(=O)[C@H]4O[C@]43[C@@]21C` ?
# output 1.65

# input What does the record list as log10 EC50 for N=C(N)c1ccc(OCCCCCOc2ccc(C(=N)N)cc2)cc1 [PENTAMIDINE] ?
# output 0.49
